B1: library; numbered along this chain (parent)
chain: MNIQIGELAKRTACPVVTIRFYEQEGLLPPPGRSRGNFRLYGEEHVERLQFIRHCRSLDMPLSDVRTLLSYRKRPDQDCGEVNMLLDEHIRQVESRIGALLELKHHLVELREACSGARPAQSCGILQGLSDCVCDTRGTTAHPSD

Variants of: B1
Method notes: sfGFP reporter fluorescence (15 h) (µM FITC); higher = stronger transcriptional activation
Measurement conditions: library round: Round 0; ligand: 30 µM Zn
Value type: sfGFP reporter fluorescence
Answer with a bare number; do not write a unit.

Known results for variants:
Incoming: Endpoint output: sfGFP reporter fluorescence of P61N G128I . Value?
Outgoing: 3.06

Incoming: Endpoint output: sfGFP reporter fluorescence of `L110V` . Value?
Outgoing: 0.502

Incoming: Endpoint output: sfGFP reporter fluorescence of `E7W` . Value?
Outgoing: 0.19

Incoming: Endpoint output: sfGFP reporter fluorescence of `L129W` . Value?
Outgoing: 0.0572

Incoming: Endpoint output: sfGFP reporter fluorescence of `E47A` . Value?
Outgoing: 0.791

Continuing:
Incoming: Endpoint output: sfGFP reporter fluorescence of `S63A` . Value?
Outgoing: 0.725

Incoming: Endpoint output: sfGFP reporter fluorescence of `L110H` . Value?
Outgoing: 2.52

Incoming: Endpoint output: sfGFP reporter fluorescence of `P143L` . Value?
Outgoing: 0.837

Incoming: Endpoint output: sfGFP reporter fluorescence of `F21Q` . Value?
Outgoing: 0.0625

Incoming: Endpoint output: sfGFP reporter fluorescence of M60L P61N D64K K104V G128I . Value?
Outgoing: 2.39
